# Study Target: bovine brain tubulin
# Test Protocol: Tubulin binding by fluorescence titration, Scatchard plot
# Experimental Setup: 2 μM tubulin, room temperature, Scatchard plot; read-out: apparent dissociation constant (Kd)
Result Type: pKd
The read-out pKd is expressed as -log10 of concentration in moles per litre.

Memo: COc1ccc2c(c1OC)C(=O)O[C@@H]2[C@H]1c2c(cc3c(c2OC)OCO3)CCN1C [Noscapine] , reported pKd: 5.73
